Test system: Jurkat HIV-luciferase clones
Test: Jurkat latency reversal assay
Type: cell-based
Details: Homo sapiens, 48 h; Jurkat latency reversal assay potency; read-out: Jurkat pEC50 (converted)
Method: Jurkat HIV-luciferase clones were maintained in RPMI medium 1640 (Gibco by Life Technologies) containing 10% (vol/vol) fetal bovine serum (SAFC/Sigma-Aldrich) and 25 units/mL penicillin, 25 units/mL streptomycin (Gibco by Life Technologies), and were split 1:4 every 3 to 4 days to maintain a cell density of ˜0.3 to 1 million cells/mL. […] Luminescence resulting from the induction of the virally expressed luciferase was measured using an EnVision 2102 Multilabel Plate Reader (Perkin Elmer). […]
measured_parameter: EC50

I'd like to know its EC50. The compound in question is C[C@@H]1CN(CC(=O)N2CC(C)(C)c3[nH]c(=O)c(Cc4ccc(F)cc4)cc32)[C@@H](CN2CCO[C@H](C(=O)NCCCN3CCN(CCCNC(=O)[C@@H]4CN(C[C@H]5CN[C@H](C)CN5CC(=O)N5CC(C)(C)c6[nH]c(=O)c(Cc7ccc(F)cc7)cc65)CCO4)CC3)C2)CN1
316 to 3310 nM

For the compound Cc1cc(Cl)ccc1Cc1cc2c([nH]c1=O)C(C)(C)CN2C(=O)CN1C[C@@H](C)NC[C@@H]1CN1CCO[C@H](C(=O)NCc2ccc(CNC(=O)[C@@H]3CN(C[C@H]4CN[C@H](C)CN4CC(=O)N4CC(C)(C)c5[nH]c(=O)c(Cc6ccc(Cl)cc6C)cc54)CCO3)cc2)C1 , what EC50 is on record?
0.49 to 12.6 nM

Value lookup for EC50; key = C[C@@H]1CN(CC(=O)N2CC(C)(C)c3[nH]c(=O)c(Cc4ccc(F)cc4)cc32)[C@@H](CN2CCO[C@H](COc3ccccc3-c3ccccc3OC[C@@H]3CN(C[C@H]4CN[C@H](C)CN4CC(=O)N4CC(C)(C)c5[nH]c(=O)c(Cc6ccc(F)cc6)cc54)CCO3)C2)CN1
0.49 to 12.6 nM

Looking for the measured EC50 of C[C@@H]1CN(CC(=O)N2CC(C)(C)c3[nH]c(=O)c(Cc4ccc(Cl)cc4C(=O)N(C)C)cc32)[C@@H](CN2CCO[C@H](C(=O)NCc3ccc(CNC(=O)[C@@H]4CN(C[C@H]5CN[C@H](C)CN5CC(=O)N5CC(C)(C)c6[nH]c(=O)c(Cc7ccc(Cl)cc7C(=O)N(C)C)cc65)CCO4)cc3)C2)CN1 , can you help?
316 to 3310 nM
